Test system: NCI-H522 lung
assay_method_text: NCI tumour cell line growth inhibition, 48 h

| compound | TGI |
| --- | --- |
| CC(=O)N1CC(C)(C)c2c(C)c(O)c(C)c(C)c21 | > 100 µM |
| CSc1nnc(CCC(=O)Nc2c(C)cccc2C)o1 | > 100 µM |
| COC(=O)c1cc(=O)[nH]c(=O)[nH]1 | > 100 µM |
| CC(=O)Nc1ccc(S(=O)(=O)N/N=C/CN2C(=O)c3ccccc3C2=O)cc1 | > 100 µM |
| CCCCCCCC/C=C\CCCCCCC/C=C1\C[C@](/C=C/C(=O)OC)(CO)OC1=O | 8.61 µM |
| NCCCN(CCCN(C(=O)Nc1ccccc1)c1ccccc1)C(=O)Nc1ccccc1 | 43.1 µM |
| CC(C)CNc1nc2ncnc(N)c2[nH]1 | > 100 µM |
| O=c1cnn(C2OC(CO)C(O)C2O)c(=S)[nH]1 (centres undefined) | > 55.4 µM |
| COC(=O)C1CCC(=S)N1C(=O)c1ccccc1 (centres undefined) | > 100 µM |
